assay: Comparison of pharmacokinetics in Beagle dogs; type: in vivo; settings: male, dog, plasma, oral administration 3 mg/kg
Experimental endpoint: bioavailability (%)

A = CC[C@@]12C=C(c3nc(C)no3)n3c4c(c5ccccc53)CCN(CCC1)[C@H]42
B = CCOC(=O)C1=C[C@]2(CC)CCCN3CCc4c(n1c1ccccc41)[C@@H]32 [Vinpocetine, reference compound]
Prompt: Among A and B , which shows a numerically higher bioavailability result? Let me know the label of the one you choose.
Response: A
(A: 37.5%, B: 12.3%)

----------
pIC50: −log10 of the molar value.
Below are pIC50 values measured for PDE1A (Homo sapiens, UniProt P54750).

For CC[C@@]12C=C(c3nc(C4CC4)no3)n3c4c(c5ccccc53)CCN(CCC1)[C@H]42 [Example 35] on PDE1A (Homo sapiens, UniProt P54750), measured pIC50 was 4.70 to 6.00

pIC50 on PDE1A (Homo sapiens, UniProt P54750) for CC[C@@]12C=C(c3nc(C)no3)n3c4c(c5cc(S(=O)(=O)N(C)C)ccc53)CCN(CCC1)[C@H]42 [Example 80] is 4.00 to 4.70

Reported pIC50 (PDE1A (Homo sapiens, UniProt P54750)) for entry CC[C@@]12C=C(c3nnc(C)o3)n3c4c(c5ccccc53)CCN(CCC1)[C@H]42 [Example 17] is 4.70 to 6.00
